Provide the recorded melting point for the entries that follow.

{"molecule": "Cn1cncc1C(O)(c1ccc2c(c1)OCCO2)c1ccc2[nH]c(=O)nc(-c3cccc(Cl)c3)c2c1 (stereo not given)", "measured attribute": "melting point", "assay result": "> 260 °C"}
{"molecule": "COC(=O)c1cn(-c2ccc(O)cc2C)c(C2CCC(Br)C(Br)C2)cc1=O (stereo not given)", "measured attribute": "melting point", "assay result": "197 to 200 °C"}
{"molecule": "O=C(NCCc1ccccc1Cl)c1c(Cl)ccc2nc(N3CCC(C(=O)O)CC3)ccc12", "measured attribute": "melting point", "assay result": "250 to 253 °C"}
{"molecule": "O=C1CCC(N2Cc3c(OCc4ccc(F)c(F)c4)cccc3C2=O)C(=O)N1 (stereo not given)", "measured attribute": "melting point", "assay result": "228 to 230 °C"}
{"molecule": "O=C([C@@H]1CSCN1C(=O)c1ccncc1)N1CCSC1", "measured attribute": "melting point", "assay result": "120 to 123 °C"}
{"molecule": "NC(=O)N1C(=O)C(C(=O)c2cccs2)c2ncc(Cl)cc21 (stereo not given)", "measured attribute": "melting point", "assay result": "> 250 °C"}
{"molecule": "N#CCCCN(Cc1ccccc1)Cc1ccccc1", "measured attribute": "melting point", "assay result": "45 to 46 °C"}
{"molecule": "CC(C)(C)OC(=O)[C@@H]1CS[C@H](c2ccccc2)N1C(=O)CNC(=O)Nc1cccc(C(=O)O)c1", "measured attribute": "melting point", "assay result": "134 °C"}
{"molecule": "O=C(O)c1cccc(N(C(c2ccccc2)c2ccccc2)n2cc(C3c4ccccc4C=Cc4ccccc43)c(=S)[nH]c2=O)c1", "measured attribute": "melting point", "assay result": "210 °C"}
{"molecule": "N#Cc1c[nH]cc1-c1ccc(Cl)cc1", "measured attribute": "melting point", "assay result": "147 to 148 °C"}

# return melting point for each item in the list
1. CC1(C)CC(=O)c2cc(O)ccc2O1
2. Cc1cc(C)c2c(-c3ccc(C(C)C)cc3)coc2c1
3. Cc1c(C)c(N2Cc3cc4c(cc3C2)OCO4)c(C)c2c1OC(C)(C)C2c1ccccc1 (stereo not given)
4. COC(=O)C12OC1(Cc1ccc(Cl)cc1)CCC2(C)C (stereo not given)
5. CN1CCC(N(C)S(=O)(=O)c2ccc(Nc3nccc(Nc4ccc(F)c(F)c4)n3)cc2)CC1
6. CCCCOc1cc(CCCC(=O)O)n(Cc2ccc(Cl)cc2Cl)n1
7. NCCNCCN1CCC(c2cn(-c3ccc(F)cc3)c3ccc(Cl)cc23)CC1
8. Cn1c(=O)c(C(=O)C2=C(O)CCCC2=O)nc2ccccc21

Reply |
1: 158 °C; 2: 44 to 45 °C; 3: 245 to 248 °C; 4: 86 to 87 °C; 5: 181 to 183 °C; 6: 60.5 to 61 °C; 7: 150 °C; 8: 191 to 192 °C

# return melting point for each item in the list
1. COC(=O)c1cc(OCCCCCCCCCCCCOc2ccccc2)ccc1O
2. Cc1ccc(C(=O)Nc2c(NC(=O)CN3CCSCC3)ccc3c2C(=O)c2ccccc2C3=O)cc1

Reply |
["61 to 64 °C", "210 to 211 °C"]

* * *

Provide the recorded melting point for the entries that follow.

Known melting point results, listed for orientation:
{"compound": "Cc1ccccc1NC(=O)c1ccc(-n2nc(C3CC3)cc2C2CC2)nc1", "measured attribute": "melting point", "assay result": "123 to 126 °C"}
{"compound": "O=[N+]([O-])c1ccc(OC23CC4CC(CC(C4)C2)C3)c2ccccc12", "measured attribute": "melting point", "assay result": "126 to 128 °C"}
{"compound": "COc1ccc(-c2nc3cc(Cl)cc(C#CCN(OC(=O)OC(C)(C)C)C(=O)OC(C)(C)C)c3o2)cc1OC1CCCC1", "measured attribute": "melting point", "assay result": "144 to 146 °C"}

# return melting point for each item in the list
1. O=C(Nc1ccccc1)O[C@@H]1CN=C(c2ccccc2)O[C@H]1c1ccccc1 (racemic)
2. CCOC(=O)/C=C/c1cnc(-c2ccc(OCc3ccccc3)c(C34CC5CC(CC(C5)C3)C4)c2)cn1
3. CCCc1nnc2n1N=C(c1ccc([N+](=O)[O-])cc1)c1cc(OC)c(Br)cc1C2
4. CCOc1nc(OCC)c2cscc2n1
5. CCOC(=O)c1cnc2c([N+](=O)[O-])c(Cl)c(F)cc2c1O

Reply |
["111 °C", "145 to 148 °C", "238 to 240 °C", "84 to 86 °C", "226 to 228 °C"]

Briefly, melting point measured for COc1ccc(OCc2cn(C34CC5CC(CC(C5)C3)C4)nn2)cc1OC : 108 to 112 °C

* * *

Provide the recorded melting point for the entries that follow.

Known melting point results, listed for orientation:
{"compound": "CCCCCCCC[C@@H](O)C(=O)Nc1cccc2nc(SC)ccc12", "melting point": "119 to 120 °C"}
{"compound": "CCc1ccccc1-c1nc(-c2ccc(Cl)cc2)n[nH]1", "melting point": "118 to 120 °C"}
{"compound": "OC1(C2CCC(c3c(F)cccc3F)=N2)C=CC(c2ccccc2)=CC1 (stereo not given)", "melting point": "217 °C"}

# return melting point for each item in the list
1. O=C1OCCN1CCn1ccnc1[N+](=O)[O-]
2. Cc1ccc2c(c1)CCC2=NNC(=N)N
3. CSC(=N[N+](=O)[O-])NC(C)=O

Reply |
1. 103 to 104 °C
2. > 275 °C
3. 109 to 110 °C

* * *

measured attribute: melting point

# return melting point for each item in the list
1. C=Cc1ccc(OC)c(OC)c1
2. N#Cc1ccc2ccc(C(=O)O)cc2c1
3. O=C(Nc1cccc2cc(Cn3ccnc3)cnc12)c1c(Cl)cccc1Cl
4. COC(=O)NNC(=O)c1ccc(O)cc1
5. CCOC(=O)CCN1CCN(CC2CN(c3ccc(C(=N)NC(=O)c4ccccc4)cc3)C(=O)O2)CC1 (stereo unspecified)
6. Nc1ccccc1-c1cccc(C(=O)O)c1
7. CCOC(=O)c1cc(Cl)nc(Cl)n1
8. Cc1nc(-c2ccc(O)cc2)cc(-c2cccc(Br)c2)c1C#N

Reply |
["110 to 114 °C", "279 to 283 °C", "177 to 179 °C", "229 to 230 °C", "163 to 164 °C", "170 °C", "31.6 °C", "214 to 218 °C"]

# return melting point for each item in the list
1. Cc1nc(-c2ccc(-c3ccc(C(=O)Nc4cc(OCCN(C)C)ccc4Cl)cc3)c(C)c2)no1
2. O=C1NC2CCCCN2C12CCNCC2 (stereo unspecified)

Reply |
1: 101 to 102 °C; 2: 193 °C

Briefly, melting point measured for Nc1cccc2c(-c3ccccc3)c([N+](=O)[O-])oc12 : 164 to 166 °C

* * *

Provide the recorded melting point for the entries that follow.

# return melting point for each item in the list
1. COc1ccc(Cn2c(C(=O)O)c(-c3ccc4c(c3)OCO4)c3cc(OCc4ccccc4)ccc32)c(OCC(=O)O)c1
2. CN1CC(CCO)N2c3ccccc3Oc3ccccc3C2C1 (stereo not given)
3. CC1Cc2ccc(Cl)cc2C(c2ccc([N+](=O)[O-])cc2)O1 (stereo not given)
4. NC(=O)N1C(=O)C(C(=O)c2cccs2)c2cc(Cl)ncc21 (stereo not given)
5. CC(=O)CCc1ccc2c(c1)Cc1cc([N+](=O)[O-])ccc1-2

Reply |
1: 147 to 148 °C; 2: 138 to 139 °C; 3: 120 to 123 °C; 4: 252 °C; 5: 159 to 162 °C

# return melting point for each item in the list
1. COc1ccc(C(=O)O)cc1OC1CCSC1 (stereo not given)
2. COc1cc2sc(C=O)cc2c(Cl)c1OC
3. CCCS(=O)(=O)c1ccccc1S(=O)(=O)NC(=O)Nc1nc(Cl)cc(OCC)n1
4. COc1ccc(-c2csc(C(=O)O)n2)cc1OC
5. OCC1CNCCC1c1ccc(F)cc1 (stereo not given)

Reply |
177 to 179 °C
164 to 165 °C
220 to 222 °C
105 to 106 °C
123 to 124 °C

* * *

measured attribute: melting point

{"compound": "CCCC(=O)C(=O)C(CC1CCCCC1)NC(=O)C(CC(C)C)NC(=O)C(Cc1ccccc1)NC(=O)OC(C)(C)C (stereo not drawn)", "assay result": "87 to 92 °C"}
{"compound": "CCCCCCCCCCCCCCCCCNC(=O)O[C@@H]1CCCO[C@H]1CO (relative stereo)", "assay result": "84 to 86 °C"}
{"compound": "O=c1c(CCCc2ccncc2)cc2cccnc2n1-c1ccc(Cl)c([N+](=O)[O-])c1", "assay result": "136 to 137 °C"}
{"compound": "CCON=C(C)c1ccc2c(c1)ncn2-c1cccc(COCc2ncnn2C)c1", "assay result": "130 to 134 °C"}

# return melting point for each item in the list
1. CCOc1ccc2cc(-c3nn(C(C)c4oc5ccccc5c(=O)c4-c4cccc(F)c4)c4ncnc(N)c34)ccc2c1 (stereo not drawn)
2. CC(=O)c1ccc(OCCOc2ccc3ccccc3c2)cc1C
3. COc1cc2c(cc1OC)NC(=O)N(CCCN(C)CCCS(=O)(=O)c1ccccc1)CC2
4. OCCOc1ccc(Nc2cc(Nc3ccccc3F)ncn2)cc1
5. COC(=O)c1nc(NC(C)=O)ccc1Oc1nc(OC)cc(OC)n1
6. Fc1cccc(F)c1-c1cccnc1
7. O=C(O)c1cc(Oc2cc(Cl)c(Cl)cc2Cl)ccc1[N+](=O)[O-]

Reply |
286 to 290 °C
128 to 130 °C
118 to 121 °C
163 to 166 °C
80 to 85 °C
194 to 196 °C
157 to 161 °C

# return melting point for each item in the list
1. CN(Cc1ccc(C(=O)Nc2ccc(Nc3cc(-c4cccc5c4oc4ccccc45)ncn3)cc2)cc1)C(=O)OC(C)(C)C
2. O=[N+]([O-])c1ccc(N2CCN(CCCN3c4cccc5cccc(c45)S3(=O)=O)CC2)cc1
3. CCOC(=O)c1sc2c(Br)cccc2c1C
4. COc1ccc2c(c1)c(CC(=O)OCc1ccc(Cl)cc1)c(C)n2C(=O)c1ccc(Cl)cc1
5. O=C(Nc1ccc(C(F)(F)F)cc1)N1CC(NC(=O)C(F)(F)F)C(c2ccc(Cl)cc2)=N1 (stereo not drawn)

Reply |
["225 to 230 °C", "186 °C", "67 to 70 °C", "113 to 114 °C", "259 to 260 °C"]

# return melting point for each item in the list
1. Cc1cc(=O)[nH]c2c3c(cc(O)c12)OC(C)C(C)C3=O (stereo not drawn)
2. O=C1NC(=Cc2ccc(Cl)cc2)C(=O)C1=NO

Reply |
["300 °C", "190 °C"]

Where these numbers come from: a melting point compilation (Tetko et al.; mined from patent text by program, amines drawn as free bases though some values may be those of a salt)
